System: HEK-293T
TEST: Multiplex assay against HEK293T
Assay type: toxicity, cell-based
CONDITION INFO: human, 12 h, 10 µM, compound concentration 10 uM, replicate 1
MEASURED ENDPOINT: Population Membrane Permeable-Phenotype (%)
One number for each entry, in %.

Sample records with Population Membrane Permeable-Phenotype (%):
>>> endpoint_result("CC(C)N1CCC(C)(C)c2cc(C#Cc3ccc(C(=O)O)cc3)ccc21")
5
>>> endpoint_result("CC(=O)c1cc(-c2cc(C(=O)NC3CC3)ccc2C)c2ncccn12")
4
>>> endpoint_result("CCCn1c(=O)c2[nH]c(C34CC5CC(CC3C5)C4)nc2n(CCC)c1=O")
1

Please supply Population Membrane Permeable-Phenotype (%) for each of the following items, keeping them in order.
1. CCn1c(-c2nonc2N)nc2cnc(Oc3cccc(NC(=O)c4ccc(OCCN5CCOCC5)cc4)c3)cc21 [GSK-269962A]
2. CCOc1cc(N2CCC(O)CC2)ccc1Nc1ncc2c(n1)N(C1CCCC1)CCC(=O)N2C
3. COc1cc2c(Nc3ccc(NC(=O)c4ccccc4)cc3)ncnc2cc1OCCCN1CCOCC1
4. Cl.Cl.NC1(c2ccc(-c3nc4ccn5c(=O)[nH]nc5c4cc3-c3ccccc3)cc2)CCC1
5. CN(C)CCOc1ccc(-c2nc(-c3ccncc3)c(-c3ccc4c(c3)CC/C4=N\O)[nH]2)cc1
6. CCc1cc2c(cc1CC)CC(NC[C@H](O)c1ccc(O)c3[nH]c(=O)ccc13)C2

Solution:
1
4
3
18
4
0

----------
Tested on: HEK-293T
TEST: Multiplex assay against HEK293T
Assay type: toxicity, cell-based
CONDITION INFO: human, 24 h, 1 µM, compound concentration 1 uM, replicate 1
MEASURED ENDPOINT: Population Apoptotic (%)
One number for each entry, in %.

# example entries with known answers
>>> endpoint_result("N#Cc1cnc(Nc2cc(NC[C@H]3CNCCO3)c(C(F)(F)F)cn2)cn1 [SRA-737]")
9
>>> endpoint_result("COc1cc2c(NC3CCN(C(C)C)CC3)nc(N3CCC(F)(F)CC3)nc2cc1OCCCN1CCCC1")
61
>>> endpoint_result("Nc1ccc(C(=O)Nc2cccc(-c3nc(N4CCOCC4)c4oc5ncccc5c4n3)c2)cn1")
64
>>> endpoint_result("Nc1nc2c(c(N3CCNCC3)n1)CCC1=C2[C@@H]2CCCC[C@@H]2O1")
49

We next turn to a different compound, shown below.
Problem: Specify reported Population Apoptotic (%) for the compound shown: CCCn1c(=O)c2[nH]c(C34CC5CC(CC3C5)C4)nc2n(CCC)c1=O [ROLOFYLLINE]
Solution: 50

----------
Tested on: HEK-293T
TEST: Multiplex assay against HEK293T
Format: toxicity, cell-based
CONDITION INFO: human, 48 h, 10 µM, compound concentration 10 uM, replicate 1
Record yes (1) whenever Total Cell Count is at 400 or higher; record no (0) when lower.

>>> assigned_category("CCc1cc2c(cc1CC)CC(NC[C@H](O)c1ccc(O)c3[nH]c(=O)ccc13)C2 [INDACATEROL]")
"no (0)"
>>> assigned_category("CC(=O)c1cc(-c2cc(C(=O)NC3CC3)ccc2C)c2ncccn12")
"no (0)"

Problem: Item Nc1ccc(C(=O)Nc2cccc(-c3nc(N4CCOCC4)c4oc5ncccc5c4n3)c2)cn1 with Total Cell Count of 400 or above?
Solution: yes (1)

Problem: Is the recorded value of Total Cell Count equal to or greater than 400 for this compound? Cl.Cl.Nc1ncnc2c1c(-c1cccc(OCc3ccccc3)c1)cn2[C@H]1C[C@@H](CN2CCC2)C1
Solution: no (0)

Problem: Tell me whether Total Cell Count is at least 400 here: CCC(=O)O[C@]1(C(=O)SCF)[C@H](C)C[C@H]2[C@@H]3C[C@H](F)C4=CC(=O)C=C[C@]4(C)[C@@]3(F)[C@@H](O)C[C@@]21C [FLUTICASONE PROPIONATE]
Solution: no (0)

Problem: Decide: Total Cell Count of Nc1nc2c(c(N3CCNCC3)n1)CCC1=C2[C@@H]2CCCC[C@@H]2O1 >= 400?
Solution: no (0)
